- study-system: 6XHIS-N98 C58/61A (Homo sapiens, UniProt Q9H2C2, C58A/C61A)
- Construct: made in house; host or cells: E. coli BL21
- Sequence (Q9H2C2 1-98 C58A/C61A): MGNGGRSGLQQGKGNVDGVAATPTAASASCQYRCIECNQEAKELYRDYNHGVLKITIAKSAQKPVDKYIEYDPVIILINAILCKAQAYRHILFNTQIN
- experimental-protocol: HTRF phospholipid lipid-binding assay, mutant
- Parameters: key: NC, no change
- condition-info: biotinylated lipid; NC = no change vs N98
readout-type: Bio-PL, EC50, M ± S.D.

CCCCCCCCCCCCCCCCCC(=O)OC[C@H](COP(=O)(O)OC[C@H](N)C(=O)O)OC(=O)CCCCCCCCCCCCCCCCC	NC
CCCCCCCC/C=C\CCCCCCCC(=O)OC[C@H](COP(=O)(O)OCC(O)CO)OC(=O)CCCCCCC/C=C\CCCCCCCC (some centres unmarked)	NC
CCCCC/C=C\C/C=C\CCCCCCCC(=O)OC[C@H](COP(=O)(O)OCC(O)COP(=O)(O)OC[C@@H](COC(=O)CCCCCCC/C=C\C/C=C\CCCCC)OC(=O)CCCCCCC/C=C\C/C=C\CCCCC)OC(=O)CCCCCCC/C=C\C/C=C\CCCCC (some centres unmarked)	NC

// data source = paper PMC11952846
